- test.target: T1, ZIKV (prM80E) with a C-terminal myc-myc-hexahistidine tag (Zika virus, UniProt A0A024B7W1 104-694)
- T1 construct: also called ZIKV (prM80E)-mmH; ZIKV-mmH
- assay.comment: SPR, mAb captured, 37C, pH 7.4
Items are presented alongside their recorded koff.
All answers are understood in s⁻¹, so give the number only.

Example entries begin here.
binder	unit.text	obs.value
H4H25591P (antibody, V domains shown) VH: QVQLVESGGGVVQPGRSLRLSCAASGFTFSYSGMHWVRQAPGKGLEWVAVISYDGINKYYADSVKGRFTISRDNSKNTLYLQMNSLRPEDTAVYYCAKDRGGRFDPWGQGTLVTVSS VL: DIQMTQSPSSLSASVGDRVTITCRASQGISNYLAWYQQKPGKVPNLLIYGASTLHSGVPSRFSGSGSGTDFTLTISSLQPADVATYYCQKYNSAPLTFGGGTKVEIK	s⁻¹	0.0063
H4H25710N (antibody, V domains shown) VH: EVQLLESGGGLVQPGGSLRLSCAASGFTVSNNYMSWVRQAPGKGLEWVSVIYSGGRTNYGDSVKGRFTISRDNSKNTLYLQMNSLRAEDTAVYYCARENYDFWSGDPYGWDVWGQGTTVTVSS VL: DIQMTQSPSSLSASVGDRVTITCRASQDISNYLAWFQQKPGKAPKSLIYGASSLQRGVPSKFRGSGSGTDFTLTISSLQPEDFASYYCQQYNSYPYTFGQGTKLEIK	s⁻¹	0.00541

Here's the next entry for you.
Returns the measured koff for the input binder. Input: H4H25592P (antibody, V domains shown) VH: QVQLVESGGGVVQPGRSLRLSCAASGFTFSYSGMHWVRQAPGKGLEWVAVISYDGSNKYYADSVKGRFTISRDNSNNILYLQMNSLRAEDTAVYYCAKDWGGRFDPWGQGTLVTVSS VL: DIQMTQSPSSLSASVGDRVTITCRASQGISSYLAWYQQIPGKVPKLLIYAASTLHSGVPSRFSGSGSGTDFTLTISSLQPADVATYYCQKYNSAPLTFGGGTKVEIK 0.00174
